Tested on: Escherichia coli TOP10
Experiment: shrunken log2 fold change of peptide-encoding DNA abundance (4.5 h post-induction vs induction); higher = less antimicrobial activity (less host growth inhibition)
Conditions: time post-induction: 4.5 h; library: site-saturation at positions 5, 18, 19, 20

>  <sequence data>
RRIRKRPPRLPRPRPRPNLEPRP

>  <shrunken log2 fold change>
0.185

$$$$
>  <sequence data>
RRIRPRPPRLPRPRPRPISGPRP

>  <shrunken log2 fold change>
-0.154

$$$$
>  <sequence data>
RRIRDRPPRLPRPRPRPNWIPRP

>  <shrunken log2 fold change>
-0.389

$$$$
>  <sequence data>
RRIRTRPPRLPRPRPRPYDRPRP

>  <shrunken log2 fold change>
-0.221

$$$$
>  <sequence data>
RRIRNRPPRLPRPRPRPHTQPRP

>  <shrunken log2 fold change>
-0.328

$$$$
>  <sequence data>
RRIRYRPPRLPRPRPRPLHLPRP

>  <shrunken log2 fold change>
-0.516

$$$$
>  <sequence data>
RRIRWRPPRLPRPRPRPAGWPRP

>  <shrunken log2 fold change>
0.922

$$$$
>  <sequence data>
RRIRSRPPRLPRPRPRPEQMPRP

>  <shrunken log2 fold change>
-0.0112

$$$$
>  <sequence data>
RRIRNRPPRLPRPRPRPQACPRP

>  <shrunken log2 fold change>
-0.0265

$$$$
>  <sequence data>
RRIRSRPPRLPRPRPRPKFGPRP

>  <shrunken log2 fold change>
-0.15

$$$$
>  <sequence data>
RRIRVRPPRLPRPRPRPMKMPRP

>  <shrunken log2 fold change>
-0.0573

$$$$
>  <sequence data>
RRIRARPPRLPRPRPRPFCCPRP

>  <shrunken log2 fold change>
0.206

$$$$
>  <sequence data>
RRIRVRPPRLPRPRPRPHSSPRP

>  <shrunken log2 fold change>
-0.531

$$$$
>  <sequence data>
RRIRKRPPRLPRPRPRPQEPPRP

>  <shrunken log2 fold change>
0.01

$$$$
>  <sequence data>
RRIRGRPPRLPRPRPRPYCVPRP

>  <shrunken log2 fold change>
-0.237

$$$$
>  <sequence data>
RRIRTRPPRLPRPRPRPMLWPRP

>  <shrunken log2 fold change>
0.143

$$$$
>  <sequence data>
RRIRPRPPRLPRPRPRPKCCPRP

>  <shrunken log2 fold change>
0.228

$$$$
>  <sequence data>
RRIRLRPPRLPRPRPRPNSRPRP

>  <shrunken log2 fold change>
-0.0164

$$$$
>  <sequence data>
RRIRVRPPRLPRPRPRPDMCPRP

>  <shrunken log2 fold change>
0.0884

$$$$
>  <sequence data>
RRIRERPPRLPRPRPRPLDWPRP

>  <shrunken log2 fold change>
-0.0749

$$$$
>  <sequence data>
RRIRCRPPRLPRPRPRPGYIPRP

>  <shrunken log2 fold change>
-0.258

$$$$
>  <sequence data>
RRIRMRPPRLPRPRPRPKNKPRP

>  <shrunken log2 fold change>
0.408

$$$$
>  <sequence data>
RRIRYRPPRLPRPRPRPPFNPRP

>  <shrunken log2 fold change>
-0.309

$$$$
>  <sequence data>
RRIRARPPRLPRPRPRPFLFPRP

>  <shrunken log2 fold change>
0.162

$$$$
>  <sequence data>
RRIRCRPPRLPRPRPRPDTEPRP

>  <shrunken log2 fold change>
-0.0455

$$$$
>  <sequence data>
RRIRLRPPRLPRPRPRPCYEPRP

>  <shrunken log2 fold change>
-0.284

$$$$
>  <sequence data>
RRIRWRPPRLPRPRPRPAAFPRP

>  <shrunken log2 fold change>
0.334

$$$$
>  <sequence data>
RRIRERPPRLPRPRPRPWNQPRP

>  <shrunken log2 fold change>
-0.124

$$$$
>  <sequence data>
RRIRIRPPRLPRPRPRPHCDPRP

>  <shrunken log2 fold change>
-0.0356

$$$$
>  <sequence data>
RRIRGRPPRLPRPRPRPMYRPRP

>  <shrunken log2 fold change>
0.115

$$$$
>  <sequence data>
RRIRFRPPRLPRPRPRPNTYPRP

>  <shrunken log2 fold change>
-0.499

$$$$
>  <sequence data>
RRIRARPPRLPRPRPRPMTMPRP

>  <shrunken log2 fold change>
0.245

$$$$
>  <sequence data>
RRIRTRPPRLPRPRPRPTSAPRP

>  <shrunken log2 fold change>
0.587

$$$$
>  <sequence data>
RRIRCRPPRLPRPRPRPNMQPRP

>  <shrunken log2 fold change>
-0.423

$$$$
>  <sequence data>
RRIRIRPPRLPRPRPRPNQKPRP

>  <shrunken log2 fold change>
0.0249

$$$$
>  <sequence data>
RRIRNRPPRLPRPRPRPVHLPRP

>  <shrunken log2 fold change>
-0.138

$$$$
>  <sequence data>
RRIRLRPPRLPRPRPRPGAYPRP

>  <shrunken log2 fold change>
-0.16

$$$$
>  <sequence data>
RRIRSRPPRLPRPRPRPNLYPRP

>  <shrunken log2 fold change>
-0.167

$$$$
>  <sequence data>
RRIRSRPPRLPRPRPRPRRDPRP

>  <shrunken log2 fold change>
0.297

$$$$
>  <sequence data>
RRIRHRPPRLPRPRPRPKKPPRP

>  <shrunken log2 fold change>
-0.125

$$$$
>  <sequence data>
RRIRMRPPRLPRPRPRPCNTPRP

>  <shrunken log2 fold change>
-0.238

$$$$
>  <sequence data>
RRIRARPPRLPRPRPRPSEFPRP

>  <shrunken log2 fold change>
0.00109

$$$$
>  <sequence data>
RRIRDRPPRLPRPRPRPAYAPRP

>  <shrunken log2 fold change>
0.058

$$$$
>  <sequence data>
RRIRDRPPRLPRPRPRPQHYPRP

>  <shrunken log2 fold change>
-0.856

$$$$
>  <sequence data>
RRIRQRPPRLPRPRPRPEMSPRP

>  <shrunken log2 fold change>
0.161

$$$$
>  <sequence data>
RRIRWRPPRLPRPRPRPNSHPRP

>  <shrunken log2 fold change>
-0.16

$$$$
>  <sequence data>
RRIRGRPPRLPRPRPRPYNIPRP

>  <shrunken log2 fold change>
-0.2

$$$$
>  <sequence data>
RRIRCRPPRLPRPRPRPVHDPRP

>  <shrunken log2 fold change>
0.141

$$$$
>  <sequence data>
RRIRRRPPRLPRPRPRPCTPPRP

>  <shrunken log2 fold change>
-0.0236

$$$$
>  <sequence data>
RRIRLRPPRLPRPRPRPEACPRP

>  <shrunken log2 fold change>
-0.0158

$$$$
>  <sequence data>
RRIRHRPPRLPRPRPRPDCAPRP

>  <shrunken log2 fold change>
0.196

$$$$
>  <sequence data>
RRIRWRPPRLPRPRPRPWNIPRP

>  <shrunken log2 fold change>
-0.0879

$$$$
>  <sequence data>
RRIRSRPPRLPRPRPRPANSPRP

>  <shrunken log2 fold change>
-0.564

$$$$
>  <sequence data>
RRIRTRPPRLPRPRPRPQLMPRP

>  <shrunken log2 fold change>
-0.137

$$$$
>  <sequence data>
RRIRMRPPRLPRPRPRPKAHPRP

>  <shrunken log2 fold change>
0.892

$$$$
>  <sequence data>
RRIRARPPRLPRPRPRPKEPPRP

>  <shrunken log2 fold change>
0.991

$$$$
>  <sequence data>
RRIRFRPPRLPRPRPRPPPDPRP

>  <shrunken log2 fold change>
1.3

$$$$
>  <sequence data>
RRIRPRPPRLPRPRPRPFCRPRP

>  <shrunken log2 fold change>
0.00205

$$$$
>  <sequence data>
RRIRKRPPRLPRPRPRPWTKPRP

>  <shrunken log2 fold change>
-0.0423

$$$$
>  <sequence data>
RRIRFRPPRLPRPRPRPYSSPRP

>  <shrunken log2 fold change>
-0.571

$$$$
>  <sequence data>
RRIRNRPPRLPRPRPRPDCCPRP

>  <shrunken log2 fold change>
0.00539

$$$$
>  <sequence data>
RRIRFRPPRLPRPRPRPLTTPRP

>  <shrunken log2 fold change>
0.0259

$$$$
>  <sequence data>
RRIRQRPPRLPRPRPRPAEIPRP

>  <shrunken log2 fold change>
-0.219

$$$$

---

System: Escherichia coli TOP10;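 note: peptides expressed intracellularly from a pBAD plasmid library in pooled LB shake-flask culture, induced with 0.3% L-arabinose, DNA abundance read by NGS, three biological replicates, DESeq2 with apeglm shrinkage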
Test: shrunken log2 fold change of peptide-encoding DNA abundance (4.5 h post-induction vs induction); higher = less antimicrobial activity (less host growth inhibition)
Details: time post-induction: 4.5 h; library: site-saturation at positions 5, 18, 19, 20

>  <sequence data>
RRIRHRPPRLPRPRPRPIGLPRP

>  <shrunken log2 fold change>
0.0101

$$$$
>  <sequence data>
RRIRERPPRLPRPRPRPLDCPRP

>  <shrunken log2 fold change>
-0.161

$$$$
>  <sequence data>
RRIRDRPPRLPRPRPRPGWAPRP

>  <shrunken log2 fold change>
0.718

$$$$
>  <sequence data>
RRIRTRPPRLPRPRPRPADGPRP

>  <shrunken log2 fold change>
-0.0563

$$$$
>  <sequence data>
RRIRQRPPRLPRPRPRPCKVPRP

>  <shrunken log2 fold change>
-0.101

$$$$
>  <sequence data>
RRIRARPPRLPRPRPRPILSPRP

>  <shrunken log2 fold change>
0.376

$$$$
>  <sequence data>
RRIRWRPPRLPRPRPRPDMEPRP

>  <shrunken log2 fold change>
-0.0114

$$$$
>  <sequence data>
RRIRYRPPRLPRPRPRPQTQPRP

>  <shrunken log2 fold change>
-0.275

$$$$
>  <sequence data>
RRIRGRPPRLPRPRPRPDDRPRP

>  <shrunken log2 fold change>
0.814

$$$$
>  <sequence data>
RRIRCRPPRLPRPRPRPPEEPRP

>  <shrunken log2 fold change>
0.301

$$$$
>  <sequence data>
RRIRNRPPRLPRPRPRPFCLPRP

>  <shrunken log2 fold change>
-0.363

$$$$
>  <sequence data>
RRIRDRPPRLPRPRPRPFCKPRP

>  <shrunken log2 fold change>
-0.164

$$$$
>  <sequence data>
RRIRGRPPRLPRPRPRPIPVPRP

>  <shrunken log2 fold change>
0.0104

$$$$
>  <sequence data>
RRIRRRPPRLPRPRPRPFDCPRP

>  <shrunken log2 fold change>
0.264

$$$$
>  <sequence data>
RRIRHRPPRLPRPRPRPAYCPRP

>  <shrunken log2 fold change>
0.119

$$$$
